src = patent US4360663A

Experiment: Acute toxicity (LD50), ICR-JCL female mice, Litchfield-Wilcoxon graph method
Conditions: mouse, in vivo, po, one dose, in olive oil, after 7 days
# LD50 at 168 h per entry
Quantity Name: LD50 at 168 h

molecule=COc1cccc2c1C(=O)c1c(O)c3c(c(O)c1C2=O)C[C@@](O)(C(=O)CO)C[C@@H]3O[C@H]1C[C@H](NCC(=O)O[C@H]2CC[C@H]3[C@@H]4CCc5cc(O)ccc5[C@H]4CC[C@]23C)[C@H](O)[C@H](C)O1 assay_value="> 3000 mg/kg"
molecule=COc1cccc2c1C(=O)c1c(O)c3c(c(O)c1C2=O)C[C@@](O)(C(=O)CO)C[C@@H]3O[C@H]1C[C@H](NCC(=O)O[C@H]2CC[C@H]3[C@@H]4CCc5cc(OC(=O)c6ccccc6)ccc5[C@H]4CC[C@]23C)[C@H](O)[C@H](C)O1 assay_value="> 3000 mg/kg"
molecule="O=NN(CCCl)C(=O)N[C@H]1C(O)O[C@H](CO)[C@@H](O)[C@@H]1O (stereo partly drawn) [Test No. 1 (Table 18), reference compound]" assay_value="210 mg/kg"
molecule=CO[C@H]1O[C@H](C(=O)OCC(=O)O[C@H]2CC[C@H]3[C@@H]4CCc5cc(O)ccc5[C@H]4CC[C@]23C)[C@@H](O)[C@H](O)[C@H]1NC(=O)N(CCCl)N=O assay_value="> 1000 mg/kg"
molecule="CN(N=O)C(=O)N[C@H]1C(O)O[C@H](CO)[C@@H](O)[C@@H]1O (stereo partly drawn) [Test No. 5 (Table 18), reference compound]" assay_value="> 1000 mg/kg"
molecule="COc1cccc2c1C(=O)c1c(O)c3c(c(O)c1C2=O)C[C@@](O)(C(=O)CO)C[C@@H]3O[C@H]1C[C@H](N)[C@H](O)[C@H](C)O1 [Test No. 13 (Table 18), reference compound]" assay_value="730 mg/kg"

---

Test system: human breast cancer cells having steroid hormone receptor
Assay: Antitumor test (in vivo), human breast cancer cells implanted in BALB/C-nu/nu mice
Settings: p.o., 1 mg/kg, tumors excised day 25
# Inhibitory effect of tumor, efficiency per entry
Quantity Name: Inhibitory effect of tumor, efficiency (%)

molecule="N[C@@H](Cc1ccc(N(CCCl)CCCl)cc1)C(=O)O [compound 21]" tgt="human breast cancer cells having steroid hormone receptor" assay_value=61
molecule="COc1cccc2c1C(=O)c1c(O)c3c(c(O)c1C2=O)C[C@@](O)(C(C)=O)C[C@@H]3O[C@H]1C[C@H](N)[C@H](O)[C@H](C)O1 [compound 18]" tgt="human breast cancer cells having steroid hormone receptor" assay_value=59
molecule="C[C@]12CC[C@@H]3c4ccc(OC(=O)c5ccccc5)cc4CC[C@H]3[C@@H]1CC[C@@H]2OC(=O)COCCNc1nc(N2CC2)nc(N2CC2)n1 [compound 20]" tgt="human breast cancer cells having steroid hormone receptor" assay_value=78
molecule="COc1cccc2c1C(=O)c1c(O)c3c(c(O)c1C2=O)C[C@@](O)(C(C)=O)C[C@@H]3O[C@H]1C[C@H](NCC(=O)O[C@H]2CC[C@H]3[C@@H]4CCc5cc(O)ccc5[C@H]4CC[C@]23C)[C@H](O)[C@H](C)O1 [compound 19]" tgt="human breast cancer cells having steroid hormone receptor" assay_value=72

---

# LD50 at 168 h per entry
Test: Acute toxicity (LD50), ICR-JCL female mice, Litchfield-Wilcoxon graph method
Settings: mouse, in vivo, po, one dose, in olive oil, after 7 days
Quantity Name: LD50 at 168 h

molecule="COc1cccc2c1C(=O)c1c(O)c3c(c(O)c1C2=O)C[C@@](O)(C(C)=O)C[C@@H]3O[C@H]1C[C@H](NCC(=O)O[C@H]2CC[C@H]3[C@@H]4CCc5cc(O)ccc5[C@H]4CC[C@]23C)[C@H](O)[C@H](C)O1 [compound 19]" assay_value="> 2000 mg/kg"
molecule="C[C@]12CC[C@@H]3c4ccc(O)cc4CC[C@H]3[C@@H]1CC[C@@H]2OC(=O)COC(=O)[C@H]1OC(O)[C@H](NC(=O)N(CCCl)N=O)[C@@H](O)[C@@H]1O (some centres unmarked) [Test No. 2 (Table 18)]" assay_value="> 1000 mg/kg"
molecule="N[C@@H](Cc1ccc(N(CCCl)CCCl)cc1)C(=O)O [compound 21]" assay_value="15.9 mg/kg"
molecule="CCC(=O)Oc1ccc2c(c1)CC[C@@H]1[C@@H]2CC[C@]2(C)[C@@H](OC(=O)CN[C@H]3C[C@H](O[C@H]4C[C@](O)(C(=O)CO)Cc5c(O)c6c(c(O)c54)C(=O)c4c(OC)cccc4C6=O)O[C@@H](C)[C@H]3O)CC[C@@H]12 [compound 16]" assay_value="> 3000 mg/kg"
molecule="C[C@]12CC[C@@H]3c4ccc(O)cc4CC[C@H]3[C@@H]1CC[C@@H]2OC(=O)Cn1cc(F)c(=O)[nH]c1=O [Test No. 7 (Table 17)]" assay_value="> 2000 mg/kg"
